- studySystem: T1, PARD3B_1, Q8TEW8
- T1 sequence (Q8TEW8 196-299, limits assumed, looked up): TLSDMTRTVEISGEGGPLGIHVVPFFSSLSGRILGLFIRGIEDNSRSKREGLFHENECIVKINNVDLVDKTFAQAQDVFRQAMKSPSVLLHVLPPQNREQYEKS
- protocolDetails: holdup assay
- Design: key: below the threshold = too weak to quantify, mostly under pKd 3.1 to 4
- testSettings: plain residues with an end cap or a label only (N-terminal biotin on a linker: ado-ado)
measuredAttribute: pKd
Give bare numbers.

Reference set (4 entries):
{"binder": "NVYGIESVKI [GRIA2, P42262]", "dataValue": 5.1}
{"binder": "QLSFNTDTLC [ABCA2, Q9BZC7]", "dataValue": 3.67}
{"binder": "EKCGKEFSEF [PRKACA, P17612]", "dataValue": 3.91}
{"binder": "KKMLQRRTLL [OR8G1, Q15617]", "dataValue": 4.47}

Below: the item to evaluate.
Task: Returns the measured pKd for the input binder. Input: TISFTQTSQF [SLC1A1, P43005]
Output: 4.24
